# system-name: Mitogen-activated protein kinase 14 (Homo sapiens)
# Sequence (Q16539 whole entry): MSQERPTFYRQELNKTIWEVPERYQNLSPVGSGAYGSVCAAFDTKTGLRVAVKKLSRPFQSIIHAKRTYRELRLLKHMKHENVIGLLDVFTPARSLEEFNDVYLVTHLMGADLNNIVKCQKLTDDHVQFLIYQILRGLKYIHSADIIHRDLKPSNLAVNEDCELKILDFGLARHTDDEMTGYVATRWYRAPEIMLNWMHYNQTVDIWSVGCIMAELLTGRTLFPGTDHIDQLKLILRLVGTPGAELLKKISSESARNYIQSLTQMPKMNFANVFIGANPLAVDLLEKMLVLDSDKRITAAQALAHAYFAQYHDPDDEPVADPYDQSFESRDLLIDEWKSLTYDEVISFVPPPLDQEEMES
# protocol-details: Inhibition of human Mitogen-activated protein kinase p38 alpha
reported-endpoint: IC50 (nM)
State just the number; it will be interpreted in nM.

IC50 measured on COC[C@@H](C)Nc1nccc(-c2nn3c(c2-c2ccc(F)cc2)OCC3)n1 = 280

IC50 measured on Oc1[nH]nc(-c2ccncc2)c1-c1ccc(F)cc1 = 320

IC50 measured on C[C@@H](Nc1nccc(-c2nn3c(c2-c2ccc(F)cc2)OCC3)n1)c1ccccc1 = 11200

IC50 measured on Fc1ccc(-c2c(-c3ccncc3)nn3c2OCCC3)cc1 = 460

IC50 measured on Fc1ccc(-c2c(-c3ccnc(Oc4ccccc4)n3)nn3c2OCCC3)cc1 = 6600

IC50 measured on CC[C@@H](C)Nc1nccc(-c2nn3c(c2-c2ccc(F)cc2)OCC3)n1 = 360

IC50 measured on Fc1ccc(-c2c(-c3ccnc(Oc4ccccc4)n3)nn3c2OCC3)cc1 = 2200

IC50 measured on CCOCn1nnc(-c2ccncc2)c1-c1ccc(F)cc1 = 310
